Field: combination Emax. Provide a value for each of the compounds that follow.
# Tested on: HSC-3 (Oral Cavity Carcinoma)
# ASSAY PROCEDURE: combination Emax (second highest fraction inhibited in the dose matrix, 72 h); higher = more inhibition; extreme values may be limits of the assay

Worked examples follow.
[[record]]
compound = "NC1(C(=O)N[C@@H](CCO)c2ccc(Cl)cc2)CCN(c2ncnc3[nH]ccc23)CC1 [Capivasertib] + CC(=O)c1c(C)c2cnc(Nc3ccc(N4CCNCC4)cn3)nc2n(C2CCCC2)c1=O [Palbociclib] (first compound max 10 µM, 7x7, partner max 10 µM)"
measured_quantity = "combination Emax"
result = 0.78

[[record]]
compound = "CS(=O)(=O)CCNCc1ccc(-c2ccc3ncnc(Nc4ccc(OCc5cccc(F)c5)c(Cl)c4)c3c2)o1 [Lapatinib] + C[C@@H](Oc1cc(-c2cnn(C3CCNCC3)c2)cnc1N)c1c(Cl)ccc(F)c1Cl [Crizotinib] (first compound max 10 µM, 7x7, partner max 10 µM)"
measured_quantity = "combination Emax"
result = 1


Kindly review the next compound as well.
I am curious: what combination Emax value has been reported for CC1(C)CCC(CN2CCN(c3ccc(C(=O)NS(=O)(=O)c4ccc(NCC5CCOCC5)c([N+](=O)[O-])c4)c(Oc4cnc5[nH]ccc5c4)c3)CC2)=C(c2ccc(Cl)cc2)C1 [Venetoclax] + Cn1cnc2c(F)c(Nc3ccc(Br)cc3Cl)c(C(=O)NOCCO)cc21 [Selumetinib] (first compound max 1 µM, 7x7, partner max 3 µM) ?
0.365

* * *

Field: combination Emax. Provide a value for each of the molecules that follow.
# System: SK-MM-2 (Plasma Cell Myeloma)
# ASSAY PROCEDURE: combination Emax (second highest fraction inhibited in the dose matrix, 72 h); higher = more inhibition; extreme values may be limits of the assay
One number for each entry.

[[record]]
molecule = "CS(=O)(=O)CCNCc1ccc(-c2ccc3ncnc(Nc4ccc(OCc5cccc(F)c5)c(Cl)c4)c3c2)o1 [Lapatinib] + Cn1cnc2c(F)c(Nc3ccc(Br)cc3Cl)c(C(=O)NOCCO)cc21 [Selumetinib] (first compound max 10 µM, 7x7, partner max 10 µM)"
measured_quantity = "combination Emax"
result_number = 0.126


Kindly review the next molecule as well.
I am curious: what combination Emax value has been reported for Cn1cnc2c(F)c(Nc3ccc(Br)cc3Cl)c(C(=O)NOCCO)cc21 [Selumetinib] + C=CCn1c(=O)c2cnc(Nc3ccc(N4CCN(C)CC4)cc3)nc2n1-c1cccc(C(C)(C)O)n1 [AZD1775] (first compound max 10 µM, partner max 1 µM) ?
0.236

* * *

# Test system: COLO-684 (Endometrial Carcinoma)
# ASSAY PROCEDURE: combination Emax (second highest fraction inhibited in the dose matrix, 72 h); higher = more inhibition; extreme values may be limits of the assay
MEASURED QUANTITY: combination Emax
Answers are plain numbers.

Give combination Emax for each listed item.
1. CC1(C)CCC(CN2CCN(c3ccc(C(=O)NS(=O)(=O)c4ccc(NCC5CCOCC5)c([N+](=O)[O-])c4)c(Oc4cnc5[nH]ccc5c4)c3)CC2)=C(c2ccc(Cl)cc2)C1 [Venetoclax] + COc1cc(Nc2ncc3c(n2)-c2ccc(Cl)cc2C(c2c(F)cccc2OC)=NC3)ccc1C(=O)O [Alisertib] (first compound max 1 µM, 7x7, partner max 10 µM)
2. C=CCn1c(=O)c2cnc(Nc3ccc(N4CCN(C)CC4)cc3)nc2n1-c1cccc(C(C)(C)O)n1 [AZD1775] + C1CN(CCC1(C(=O)N[C@@H](CCO)C2=CC=C(C=C2)Cl)N)C3=NC=NC4=C3C=CN4 [Capivasertib] (first compound max 3 µM, partner max 3 µM)
3. COc1cccc(OCCCN)c1-c1cc(Nc2cnc(C#N)cn2)n[nH]1 [Prexasertib] + Cc1cc2ncnn2cc1Nc1ncc2c(n1)n(C1CCOCC1)c(=O)n2C [AZD7648] (first compound max 1 µM, 7x7, partner max 10 µM)
4. O=C(c1cc(Cc2n[nH]c(=O)c3ccccc23)ccc1F)N1CCN(C(=O)C2CC2)CC1 [Olaparib] + CC1(C)CCC(CN2CCN(c3ccc(C(=O)NS(=O)(=O)c4ccc(NCC5CCOCC5)c([N+](=O)[O-])c4)c(Oc4cnc5[nH]ccc5c4)c3)CC2)=C(c2ccc(Cl)cc2)C1 [Venetoclax] (first compound max 10 µM, 7x7, partner max 1 µM)
5. Cc1cc2ncnn2cc1Nc1ncc2c(n1)n(C1CCOCC1)c(=O)n2C [AZD7648] + O=C(c1cc(Cc2n[nH]c(=O)c3ccccc23)ccc1F)N1CCN(C(=O)C2CC2)CC1 [Olaparib] (first compound max 10 µM, 7x7, partner max 10 µM)
6. CC(=O)c1c(C)c2cnc(Nc3ccc(N4CCNCC4)cn3)nc2n(C2CCCC2)c1=O [Palbociclib] + Cn1cnc2c(F)c(Nc3ccc(Br)cc3Cl)c(C(=O)NOCCO)cc21 [Selumetinib] (first compound max 10 µM, 7x7, partner max 10 µM)
7. COc1cccc2c1C(=O)c1c(O)c3c(c(O)c1C2=O)C[C@@](O)(C(=O)CO)C[C@@H]3O[C@H]1C[C@H](N)[C@H](O)[C@H](C)O1 [Doxorubicin] + Cc1cc2ncnn2cc1Nc1ncc2c(n1)n(C1CCOCC1)c(=O)n2C [AZD7648] (first compound max 1 µM, 7x7, partner max 10 µM)

[0.264, 0.841, 0.844, 0.259, 0.238, 0.153, 0.627]

* * *

Field: Bliss excess. Provide a value for each of the compounds that follow.
# System: FLO-1 (Esophageal Adenocarcinoma)
# ASSAY PROCEDURE: Bliss excess, mean over the matrix (fraction); higher = more synergy
Give bare numbers.

[[record]]
compound = "CC1(C)CCC(CN2CCN(c3ccc(C(=O)NS(=O)(=O)c4ccc(NCC5CCOCC5)c([N+](=O)[O-])c4)c(Oc4cnc5[nH]ccc5c4)c3)CC2)=C(c2ccc(Cl)cc2)C1 [Venetoclax] + COc1cc(Nc2ncc3c(n2)-c2ccc(Cl)cc2C(c2c(F)cccc2OC)=NC3)ccc1C(=O)O [Alisertib] (first compound max 1 µM, 7x7, partner max 10 µM)"
measured_quantity = "Bliss excess"
result_number = -0.0379


I am curious: what Bliss excess value has been reported for CN(CCO)CC[C@H](CSc1ccccc1)Nc1ccc(S(=O)(=O)NC(=O)c2ccc(N3CCC([C@@H](O)c4ccccc4-c4ccc(Cl)cc4)CC3)cc2)cc1S(=O)(=O)C(F)(F)F [AZD4320] + CCN(CCO)CCCOc1ccc2c(Nc3cc(CC(=O)Nc4cccc(F)c4)[nH]n3)ncnc2c1 [AZD2811] (first compound max 1 µM, 7x7, partner max 1 µM) ?
0.0895

* * *

# Tested on: PANC-02-03 (Pancreatic Carcinoma)
# ASSAY PROCEDURE: combination Emax (second highest fraction inhibited in the dose matrix, 72 h); higher = more inhibition; extreme values may be limits of the assay
Field: combination Emax. Provide a value for each of the compounds that follow.
Numbers only.

Worked examples follow.
[[record]]
compound = "C=CCn1c(=O)c2cnc(Nc3ccc(N4CCN(C)CC4)cc3)nc2n1-c1cccc(C(C)(C)O)n1 [AZD1775] + Nc1ccn([C@@H]2O[C@H](CO)[C@@H](O)C2(F)F)c(=O)n1 [Gemcitabine] (first compound max 1 µM, partner max 0.3 µM)"
measured_quantity = "combination Emax"
result_number = 0.588

[[record]]
compound = "C[C@@H](c1ccc2nccn2c1)n1nnc2ncc(-c3cnn(C)c3)nc21 [Savolitinib] + Cc1c2c(nn1C)CSCc1cc(n(C)n1)CSc1cc(c3ccccc3c1)OCCCc1c(C(=O)O)n(C)c3c-2c(Cl)ccc13 [AZD5991] (first compound max 1 µM, 7x7, partner max 1 µM)"
measured_quantity = "combination Emax"
result_number = 0.13

[[record]]
compound = "COc1nnc2ccc(N3CCC(c4ccc(OCCN5CCN(C)C(=O)[C@H]5C)cc4)CC3)nn12 [AZD5153] + Cc1c2c(nn1C)CSCc1cc(n(C)n1)CSc1cc(c3ccccc3c1)OCCCc1c(C(=O)O)n(C)c3c-2c(Cl)ccc13 [AZD5991] (first compound max 1 µM, 7x7, partner max 1 µM)"
measured_quantity = "combination Emax"
result_number = 0.595


Kindly review the next compound as well.
Query combination Emax on PANC-02-03 (Pancreatic Carcinoma) for C[C@@H](Nc1cc(F)cc(F)c1)c1cc(C(=O)N(C)C)cc2c(=O)cc(N3CCOCC3)oc12 [AZD8186] + CC(=O)c1c(C)c2cnc(Nc3ccc(N4CCNCC4)cn3)nc2n(C2CCCC2)c1=O [Palbociclib] (first compound max 10 µM, 7x7, partner max 10 µM)
0.343

* * *

# System: NCI-H1563 (Lung Adenocarcinoma)
# ASSAY PROCEDURE: Bliss excess, mean over the matrix (fraction); higher = more synergy
MEASURED QUANTITY: Bliss excess
One number for each entry.

Worked examples follow.
[[record]]
molecule = "C=CCn1c(=O)c2cnc(Nc3ccc(N4CCN(C)CC4)cc3)nc2n1-c1cccc(C(C)(C)O)n1 [AZD1775] + C1CN(CCC1(C(=O)N[C@@H](CCO)C2=CC=C(C=C2)Cl)N)C3=NC=NC4=C3C=CN4 [Capivasertib] (first compound max 3 µM, partner max 3 µM)"
result_number = -0.0318

[[record]]
molecule = "COc1cccc(OCCCN)c1-c1cc(Nc2cnc(C#N)cn2)n[nH]1 [Prexasertib] + CN(C)CCCOc1ccc(-c2ccc3ncc4c(c3c2)n(C2CCOCC2)c(=O)n4C)cn1 [AZD0156] (first compound max 1 µM, 7x7, partner max 1 µM)"
result_number = -0.0416

[[record]]
molecule = "CC(=O)c1c(C)c2cnc(Nc3ccc(N4CCNCC4)cn3)nc2n(C2CCCC2)c1=O [Palbociclib] + Cc1c2c(nn1C)CSCc1cc(n(C)n1)CSc1cc(c3ccccc3c1)OCCCc1c(C(=O)O)n(C)c3c-2c(Cl)ccc13 [AZD5991] (first compound max 10 µM, 7x7, partner max 1 µM)"
result_number = -0.098


Kindly review the next molecule as well.
Query Bliss excess on NCI-H1563 (Lung Adenocarcinoma) for C=CCn1c(=O)c2cnc(Nc3ccc(N4CCN(C)CC4)cc3)nc2n1-c1cccc(C(C)(C)O)n1 [AZD1775] + O=C(c1cc(Cc2n[nH]c(=O)c3ccccc23)ccc1F)N1CCN(C(=O)C2CC2)CC1 [Olaparib] (first compound max 1 µM, partner max 10 µM)
-0.0288
